assay: NCI Yeast Anticancer Drug Screen. Data for the bub3 strain (AID 167); conditions: S. cerevisiae bub3 mutant strain, at 50.0 µM, hits give high values
The panel holds about 79,000 compounds, 15% with a hit somewhere; the sample as a whole holds those more often. Active and inactive are the calls of the source. Rule as the data show it: active = growth inhibition above about 70%; inactive = the rest.
readout.type: growth inhibition

Below, each entry is followed by its recorded growth inhibition result.
compound: O=S(=O)(O)c1ccc(Cl)cc1
growth inhibition: 0.3% (inactive)

compound: O=[N+]([O-])NC1=NCCN1CCCl
growth inhibition: -12.6% (inactive)

compound: O=C1OC(Br)c2ccccc21 (stereo unspecified)
growth inhibition: -20.1% (inactive)

Q: Given the entry O=c1c(O)c(-c2ccccc2)oc2ccccc12.[Zr] , report its measured growth inhibition.
Ans: 22.4% (inactive)

Q: Try COc1ccc2c(c[n+](C)c3c4cc5c(cc4ccc23)OCO5)c1OC next.
Ans: -6.5% (inactive)

Q: What would you report for O=C(NCC(O)CO)c1ccc(N(CCCl)CCCl)c([N+](=O)[O-])c1[N+](=O)[O-] (stereo unspecified) ?
Ans: 12.7% (inactive)

----------
test: NCI Yeast Anticancer Drug Screen. Data for the mec2-1 strain (AID 157); details: S. cerevisiae mec2-1 strain, at 50.0 µM, hits give high values
This is part of a sample that, as a whole, favours compounds with a hit. Of some 79,000 tested, about 15% had one in any assay.
readout.type: growth inhibition (%)
Answer format: numeric, % implied, no suffix.

Please review the entries below; each comes with its answer.
compound: CC(C)CCC1C(=O)N(C)C(=O)N(C)C1=O
result.unit: %
growth inhibition: -6.55
--
compound: COc1ccc2c3c1OC1C(OC)(OC)C=C[C@@]4(Br)[C@@H](C2)N(CC2CC2)CC[C@]314 (stereo partly specified)
result.unit: %
growth inhibition: 5.6
--
compound: COc1ccc2c(c1)CCC1C2CCC2(C)C1CCC21CCNP(=O)(N(CCCl)CCCl)O1 (stereo unspecified)
result.unit: %
growth inhibition: 31.4

Q: So what does the record say about growth inhibition for O=C(C(F)(F)Cl)C(F)(F)Cl ?
Ans: -14.9

Q: Another compound to look at: CC(Br)C(N)=O (stereo unspecified)
Ans: -17.8

Q: Same read-out for CN1CN(c2ccccc2)C2(CCN(CCCCCCF)CC2)C1=O ?
Ans: -15.9

Q: And O=P(O)(NCCCl)NCCCl ?
Ans: -17.9

Q: And the next one, NC(=O)C(Cl)c1ccccc1 (stereo unspecified) ?
Ans: -25.9

Q: Please give the result for NC(Cc1c[nH]c2cc([N+](=O)[O-])ccc12)C(=O)O (stereo unspecified) too.
Ans: 2.15

----------
Examples of molecules with documented growth inhibition follow.
Assay: NCI Yeast Anticancer Drug Screen. Data for the cln2 rad14 strain (AID 165);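 also: 0% = growth equal to vehicle treated cultures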
Conditions: S. cerevisiae cln2 rad14 strain, at 50.0 µM, hits give high values
Experimental: Growth inhibition of yeast strains with defined genetic alterations is measured as a screen for potential anti-cancer activity. Selected strains with alterations in DNA damage repair or cell cycle control were exposed to compounds and growth inhibition was measured relative to vehicle treated controls. The strain used in this assay is cln2 rad14
About 79,000 compounds went through this panel and 15% of them were active in at least one assay; those are over-represented in the sample as a whole. Activity calls are given as the source filed them. Rule as the data show it: active = growth inhibition above about 70%; inactive = the rest.

Recorded growth inhibition, per entry:
molecule: O=N[O-].[Co].[NH-]CC[NH-].[NH-]CC[NH-].[NH2-]
readout.type: growth inhibition
value: 4.95% (inactive)

molecule: CC(C)COP(=O)(Cc1ccccc1)OCC(C)C
readout.type: growth inhibition
value: 11.8% (inactive)

molecule: O=C(Nc1ccc(S(=O)(=O)F)cc1)/C(=C\c1ccc([N+](=O)[O-])cc1)c1cccc(Cl)c1
readout.type: growth inhibition
value: 31.4% (inactive)

Q: Requested read-out: growth inhibition. Entry: CC1OC(OC2C(O)CC(OC3C(O)CC(OC4CCC5(C)C(CCC6C5CCC5(C)C(C7=CC(=O)OC7)C(O)CC65O)C4)OC3C)OC2C)CC(O)C1O (centres undefined)
Ans: -13.1% (inactive)

Q: What do you have for CN(C)C(=O)Sc1ccc(S(=O)(=O)F)cc1[N+](=O)[O-] ?
Ans: 42.5% (inactive)

Q: Please answer likewise for [C-]#[O+].[C-]#[O+].[C-]#[O+].[Mo].c1ccc(P(CC[PH+](CC[PH+](CC[PH+](c2ccccc2)c2ccccc2)c2ccccc2)c2ccccc2)c2ccccc2)cc1 (centres undefined)
Ans: 37.7% (inactive)

Q: What do you have for CC[C@@H]1C[C@H]2CC3c4[nH]c5ccc(O)cc5c4CCN(C2)C31 ?
Ans: 5.35% (inactive)

Q: // repeat for CCOP(C)(=O)C(N)Cc1ccc(OC)c(OC)c1 (centres undefined) and report
Ans: -16.4% (inactive)

Q: Please give the result for COc1cc(O)c([N+](=O)[O-])cc1[N+](=O)[O-] too.
Ans: 0% (inactive)

----------
test: NCI Yeast Anticancer Drug Screen. Data for the sgs1 mgt1 strain (AID 161);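 also: 0% = growth of cultures given vehicle only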; details: S. cerevisiae sgs1 mgt1 strain, at 50.0 µM
Compounds without any hit were thinned out: in the full panel of roughly 79,000, 15% have a hit. Activity calls are given as the source filed them. Rule as the data show it: active = growth inhibition above about 70%; inactive = the rest.
Permitted responses: yes for active, no for inactive

compound: O=c1ccn(C2OC(CO)C(O)C2[Se]c2ccccc2)c(=O)[nH]1 (configuration not stated)
class: no
//
compound: CCOc1cc(CCNC)c2c(ccc3ccc(OC)c(O)c32)c1OC
class: no
//
compound: c1cc(C2O[C@H]3CCCN3[C@@H]2c2ccncc2)ccn1 (some centres not stated)
class: no
//
compound: COc1cc2cc(c1Cl)N(C)C(=O)CC(OC(=O)C(C)C)C1(C)OC1C(C)C1CC(O)(NC(=O)O1)C(OC)/C=C/C=C(C)C2 (configuration not stated)
class: no

Q: Please state the recorded outcome for this compound: c1ccc(-c2csc3[nH]c4ccccc4[n+]23)cc1
Ans: no

Q: Input CN(C(=O)CCl)c1ccccc1
Ans: no

Q: // repeat for O=N[O-].O=N[O-].[Co].[NH-]CC[N-]CCO.[NH-]CC[N-]CCO and report
Ans: no

Q: Queued: O=[C-]/C=C/c1ccccc1.[C-]#[O+].[C-]#[O+].[Fe+2].[c-]1ccccc1
Ans: no

Q: Another compound to check: CCN(CC)CCO
Ans: no

Q: And for CC([OH2+])CNCCN.CC([OH2+])CNCCN.O=[N+]([O-])[O-].[Cu+2] (configuration not stated) ?
Ans: no

Q: Now consider CCOP(=O)(CC#N)OCC .
Ans: no

Q: And BrCC[N+]12CC[N+](CCBr)(CC1)C2 (tested in a mixture with another compound) ?
Ans: yes

Q: Also check CCOC(=O)C1C(c2ccco2)C2(C#N)C(=N)OC1(C)C2(C#N)C#N (configuration not stated)
Ans: no

Q: Request: O=[C-]C(F)(F)F.[C-]#[O+].[C-]#[O+].[C-]#[O+].[Mo].[c-]1[c-][c-][cH-][c-]1
Ans: no

Q: Now this one: CCCOC(=O)CCl
Ans: no

Q: c1ccc(C[N+]23CN4CN(CN(C4)C2)C3)cc1 , same question.
Ans: no

Q: Please give the result for O=C([CH-]C(=O)c1ccccc1)c1ccccc1.O=C([CH-]C(=O)c1ccccc1)c1ccccc1.[OH-].[OH-].[Ti+4] too.
Ans: no

Q: What would you report for CCN(CC)CCN(CC)CC.CCN(CC)CCN(CC)CC.[Cu+2].[Cu+2].[O-][Cl+3]([O-])([O-])[O-].[OH3+].[OH3+] ?
Ans: no

Q: What do we get for Oc1ccc(Cl)cc1Br ?
Ans: no

Q: Field entry: CCC[CH2][Sn]([Cl])([Cl])[CH2]CCC.c1ccncc1
Ans: yes

Q: Now consider O=C(NCCO)c1cc([N+](=O)[O-])cc([N+](=O)[O-])c1 .
Ans: no

Q: Next compound up: CN1CCCC(O)(C(=O)c2ccccc2)C1 (configuration not stated)
Ans: no

Q: Request: C=[CH][Sn]([CH]=C)([c]1ccccc1)[c]1ccccc1
Ans: no

Q: Next compound up: CC(=O)Nc1cc(Cl)c([N+](=O)[O-])cc1C
Ans: no

Q: Then this compound: COC(=O)C1(F)C(=O)NC(=O)NC1O (configuration not stated)
Ans: no

Q: // repeat for CC(C)(C)N1OC1c1cccc(Cl)c1 (configuration not stated) and report
Ans: no

----------
assay: NCI Yeast Anticancer Drug Screen. Data for the mlh1 rad18 strain (AID 175); conditions: S. cerevisiae mlh1 rad18 strain growth inhibition; at 50.0 µM
The panel holds about 79,000 compounds, 15% with a hit somewhere; the sample as a whole holds those more often. The source made the active and inactive calls. No stated cut-off is given here; in the data, active means growth inhibition above about 70%; inactive means the rest.
Returns: one label drawn from active, inactive

Sample answers from the record:
molecule: CCC(=O)C(c1ccccc1)(c1ccccc1)C(C)CN(C)C (stereo not drawn)
class: inactive
--
molecule: CCOC(=O)CC(=O)CCl.[Cu+2]
class: inactive
--
molecule: O=C(NC1=NN(Cc2ccccc2)C(=O)C1)c1ccc(S(=O)(=O)F)cc1
class: inactive

Q: Which outcome was assigned to CC(NC1=NCCO1)c1ccsc1 (stereo not drawn) in this test?
Ans: inactive

Q: Moving on to the next molecule: C/C=C1\C[C@@H]2C(OC)Nc3cc(O)c(OC)cc3C(=O)N2C1 (stereo partly drawn)
Ans: inactive

Q: Next up: CN(CCC#N)c1ccc(C=C(C#N)C#N)cc1
Ans: inactive

Q: Also, O=C(O)C1CCCN1[N+](=O)[O-] (stereo not drawn) please.
Ans: inactive

Q: Do the same for CC1=NCCc2c1[nH]c1cc(O)ccc21 please
Ans: inactive

Q: Next: N.N.N.N.N.O=[N+]([O-])[O-].[Co+3].[O-][Cl+3]([O-])([O-])[O-]
Ans: inactive
